Overview of recorded EC50 for various compounds
test system: Gal4-RORγ-LBD (Homo sapiens, UniProt P51449)
Construct: expressed in transfected cells; host or cells: HEK-293 cells (pcDNA3.1neo plasmid)
Sequence (P51449 269-508 limits assumed): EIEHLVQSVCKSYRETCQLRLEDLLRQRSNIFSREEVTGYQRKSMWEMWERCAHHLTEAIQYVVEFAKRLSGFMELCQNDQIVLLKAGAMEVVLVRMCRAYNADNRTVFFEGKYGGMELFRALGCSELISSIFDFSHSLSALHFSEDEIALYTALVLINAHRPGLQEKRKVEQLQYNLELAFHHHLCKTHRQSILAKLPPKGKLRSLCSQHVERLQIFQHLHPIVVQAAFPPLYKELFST
experiment summary: Gal4-RORγ Luciferase Reporter Assay in HEK-293T Cells
Format: cell-based
test context: HEK-293 cells, 2 μM ursolic acid

A selection of reference data follows.
compound	measured value
CC(C)(C[C@H]1CN(S(=O)(=O)c2cccc(C(F)(F)F)c2)c2cc(-c3cc(F)ccc3F)ccc2O1)NC(=O)C(C)(C)O [Compound 30CX]	< 500 nM
Cc1ccc(C)c(-c2ccc3c(c2)N(S(=O)(=O)c2cccc(C(F)(F)F)c2)C[C@H](CC(C)(C)C(=O)O)O3)c1 [Compound 32AT]	< 500 nM

Request: Given the compound CC(=O)N[C@H](C)C(=O)NC[C@H]1CN(S(=O)(=O)c2cccc(C(F)(F)F)c2)c2cc(-c3cccc(F)c3Cl)ccc2O1 [Compound 30CJ] , what is its reported EC50?
Result: 500 to 5000 nM
